System: LXRa:RXRa (NR concentration 270 nM, RXRa partner concentration 90 nM)
Assay: PBM binding z-score (relative to random genomic background probes); higher = stronger binding; sequences stand for … in GC…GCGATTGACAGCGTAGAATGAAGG
Outcome label depends on PBM binding z-score relative to 0.7: at/above gives Fulfilled, below gives Not fulfilled.

- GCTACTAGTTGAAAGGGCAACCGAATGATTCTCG: Not fulfilled

Q: Record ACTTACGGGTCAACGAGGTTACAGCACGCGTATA ; criterion: PBM binding z-score no lower than 0.7. Met?
A: Fulfilled

Q: Record ATCGAAAGGTCGGCGAGGTGAGTATACACCGTTT ; criterion: PBM binding z-score no lower than 0.7. Met?
A: Fulfilled

Q: Record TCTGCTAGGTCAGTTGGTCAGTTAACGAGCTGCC ; criterion: PBM binding z-score no lower than 0.7. Met?
A: Not fulfilled

Q: Record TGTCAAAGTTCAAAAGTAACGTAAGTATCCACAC ; criterion: PBM binding z-score no lower than 0.7. Met?
A: Fulfilled

---

Tested on: PPARg DBDmut IVT, anti-PPARg (DBD mutation: PPARg1 K132A/R137A, NR concentration 270 nM)
Assay: PBM binding z-score (relative to random genomic background probes); higher = stronger binding; sequences stand for … in GC…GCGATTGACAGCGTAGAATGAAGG
readout: PBM binding z-score
One number for each entry.

* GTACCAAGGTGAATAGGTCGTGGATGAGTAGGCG | -0.568
* TCTGCTAGGTCGGTTGGTCAGCTAACGAGCTGCC | -0.00426
* AAAACGAGGGCAATGAGTTGATAGCACGGGTGGC | 0.681

# batch size: 4; output PBM binding z-score per entry
1. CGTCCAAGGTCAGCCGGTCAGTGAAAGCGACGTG
2. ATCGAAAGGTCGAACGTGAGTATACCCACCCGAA
3. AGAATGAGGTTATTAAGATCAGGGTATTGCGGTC
4. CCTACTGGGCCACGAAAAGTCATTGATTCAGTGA

A:
1. -1.45
2. 0.459
3. 0.558
4. -0.417

---

Test system: RARg homodimer (NR concentration 270 nM)
Assay: PBM binding z-score (relative to random genomic background probes); higher = stronger binding; sequences stand for … in GC…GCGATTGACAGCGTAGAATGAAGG
Outcome label depends on PBM binding z-score relative to 3: at/above gives MET, below gives NOT MET.

* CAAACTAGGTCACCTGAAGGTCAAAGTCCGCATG | MET
* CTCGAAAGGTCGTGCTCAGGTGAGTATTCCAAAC | MET
* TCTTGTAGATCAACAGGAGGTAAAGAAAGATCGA | NOT MET
* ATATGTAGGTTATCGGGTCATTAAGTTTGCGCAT | NOT MET
* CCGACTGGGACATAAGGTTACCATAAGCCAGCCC | NOT MET
* TCTTGTAGATCAACAGGAGGTTCAGAAAGATCGA | NOT MET
* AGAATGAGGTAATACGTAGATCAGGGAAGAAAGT | NOT MET
* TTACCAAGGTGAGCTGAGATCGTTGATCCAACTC | NOT MET

Q: Record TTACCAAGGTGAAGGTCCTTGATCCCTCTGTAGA ; criterion: PBM binding z-score no lower than 3. Met?
A: NOT MET

Q: Record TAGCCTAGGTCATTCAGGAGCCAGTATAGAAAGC ; criterion: PBM binding z-score no lower than 3. Met?
A: MET

Q: Record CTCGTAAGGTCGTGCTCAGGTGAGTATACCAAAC ; criterion: PBM binding z-score no lower than 3. Met?
A: NOT MET

Q: Record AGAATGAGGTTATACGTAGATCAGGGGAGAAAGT ; criterion: PBM binding z-score no lower than 3. Met?
A: NOT MET

Q: Record ATTTCTAGGTAAAGTTCAGTGAAAGATCGATAGA ; criterion: PBM binding z-score no lower than 3. Met?
A: NOT MET

---

Tested on: RARa:RXR (NR concentration 270 nM, RXRa partner concentration 90 nM)
Test: PBM binding z-score (relative to random genomic background probes); higher = stronger binding; sequences stand for … in GC…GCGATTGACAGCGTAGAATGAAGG
readout: PBM binding z-score

Examples with their reported PBM binding z-score follow.
- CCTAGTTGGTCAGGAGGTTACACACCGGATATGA: 1.38
- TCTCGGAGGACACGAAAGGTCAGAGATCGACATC: 4.31
- TCAGACATGTGAAGGTAACTCAGGTACGCAGTCG: 0.493
- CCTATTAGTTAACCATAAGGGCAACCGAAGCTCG: 0.812
- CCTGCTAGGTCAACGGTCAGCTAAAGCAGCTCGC: 2.89
- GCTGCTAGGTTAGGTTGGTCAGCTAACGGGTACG: -0.327

Moving on to the next sequence.
In plain terms, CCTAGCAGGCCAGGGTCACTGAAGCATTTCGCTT has a documented PBM binding z-score of 3.83

---

System: PPARg:RXRa 90nM:30nM, anti-RXR (NR concentration 90 nM, RXRa partner concentration 30 nM)
Assay: PBM binding z-score (relative to random genomic background probes); higher = stronger binding; sequences stand for … in GC…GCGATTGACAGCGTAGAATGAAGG
readout: PBM binding z-score
Answers are plain numbers.

# batch size: 4; output PBM binding z-score per entry
1. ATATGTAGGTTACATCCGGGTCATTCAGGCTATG
2. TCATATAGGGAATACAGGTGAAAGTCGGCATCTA
3. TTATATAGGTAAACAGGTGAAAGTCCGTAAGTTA
4. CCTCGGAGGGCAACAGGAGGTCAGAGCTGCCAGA

A:
1. 4.54
2. 3.22
3. 4.41
4. 0.405

# batch size: 7; output PBM binding z-score per entry
1. CTCGAAAGGTCGGTTGAGGTGATTATACGGATAA
2. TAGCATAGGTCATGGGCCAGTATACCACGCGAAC
3. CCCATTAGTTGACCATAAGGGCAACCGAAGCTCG
4. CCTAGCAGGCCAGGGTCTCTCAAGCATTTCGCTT
5. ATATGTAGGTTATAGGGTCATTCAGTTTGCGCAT
6. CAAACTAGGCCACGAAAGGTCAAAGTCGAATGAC
7. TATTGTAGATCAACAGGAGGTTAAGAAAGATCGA

A:
1. 0.688
2. 4.24
3. 0.346
4. -1.4
5. 7.25
6. 6.62
7. 0.68

---

Hi there, I'd appreciate the recorded PBM binding z-score for every entry that follows.
Test system: PPARg:RXRa DBDmut IVT, anti-RXR (DBD mutation: RXRa K156A/R161A, NR concentration 270 nM, RXRa partner concentration 90 nM)
Assay: PBM binding z-score (relative to random genomic background probes); higher = stronger binding; sequences stand for … in GC…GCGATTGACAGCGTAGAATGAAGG

Examples with their reported PBM binding z-score follow.
- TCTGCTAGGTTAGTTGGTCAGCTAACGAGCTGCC: 1.37
- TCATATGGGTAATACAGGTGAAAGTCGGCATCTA: 3.38
- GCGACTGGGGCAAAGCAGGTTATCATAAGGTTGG: 4.56
- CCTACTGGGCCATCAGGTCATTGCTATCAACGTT: 4.86

# batch size: 7; output PBM binding z-score per entry
1. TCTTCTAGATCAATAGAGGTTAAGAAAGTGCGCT
2. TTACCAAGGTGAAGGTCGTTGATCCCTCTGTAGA
3. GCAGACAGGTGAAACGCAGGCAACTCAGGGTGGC
4. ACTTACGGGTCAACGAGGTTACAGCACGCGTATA
5. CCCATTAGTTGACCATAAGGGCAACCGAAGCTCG
6. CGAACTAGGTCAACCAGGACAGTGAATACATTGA
7. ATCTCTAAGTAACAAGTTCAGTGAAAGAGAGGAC

A:
1. 2.16
2. 1.59
3. 0.648
4. 3.63
5. -0.253
6. 8.5
7. 0.199

# batch size: 2; output PBM binding z-score per entry
1. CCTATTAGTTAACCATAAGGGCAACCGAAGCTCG
2. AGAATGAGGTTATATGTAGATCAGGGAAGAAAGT

A:
0.296
3.28

---

System: RXRa DBDmut IVT, anti-RXR (DBD mutation: RXRa K156A/R161A, NR concentration 90 nM)
Test: PBM binding z-score (relative to random genomic background probes); higher = stronger binding; sequences stand for … in GC…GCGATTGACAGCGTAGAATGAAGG
Hi there, I'd appreciate the recorded PBM binding z-score for every entry that follows.

Examples with their reported PBM binding z-score follow.
* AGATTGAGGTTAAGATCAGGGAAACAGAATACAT | 1.36
* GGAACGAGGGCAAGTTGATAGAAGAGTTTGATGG | 2.22

# batch size: 2; output PBM binding z-score per entry
1. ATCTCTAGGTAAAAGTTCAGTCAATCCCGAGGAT
2. ATCGAAAGGTCGTGAGGTGAGTGTACAGAAAGGC

A:
[1.12, 1.26]

# batch size: 6; output PBM binding z-score per entry
1. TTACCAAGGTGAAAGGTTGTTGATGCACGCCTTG
2. ATCTCTAGTTAAAGATAGTTCAGTGAATGCAAAT
3. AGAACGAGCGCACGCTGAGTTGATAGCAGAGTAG
4. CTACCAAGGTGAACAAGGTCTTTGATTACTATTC
5. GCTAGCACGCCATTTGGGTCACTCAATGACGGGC
6. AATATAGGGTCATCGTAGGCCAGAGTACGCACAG

A:
[0.0428, 0.396, -0.346, 0.886, -0.343, 3.83]
